assay-remarks: in vivo
protocol-conditions: guinea pig, iv
reported-metric: LD50 (mg/kg)

>>> df
                                   compound  measured
0  CCCCCOc1cccc(NC(=O)O[C@@H]2CCCC[C@H]2N2CCCC2)c1 (relative stereo)       7.8

====

assay-remarks: in vivo
protocol-conditions: mouse, po
reported-metric: LD50

In [3]: df
Out[3]:
                                   compound   measured
0  CCCCCOc1cccc(NC(=O)O[C@@H]2CCCC[C@H]2N2CCCC2)c1 (relative stereo) [substance of the formula]  790 mg/kg

====

assay-remarks: in vivo
protocol-conditions: rat, iv
reported-metric: LD50 (mg/kg)

                                   compound  reported_metric  measurement_units  measured
0  CCCCCOc1cccc(NC(=O)O[C@@H]2CCCC[C@H]2N2CCCC2)c1 (relative stereo)             LD50              mg/kg      11.8

====

System: rat
protocol-conditions: in vivo, iv
reported-metric: LD50 (mg/kg)

                                   molecule  measurement_units  measured
0  CCCCCOc1cccc(NC(=O)O[C@@H]2CCCC[C@H]2N2CCCC2)c1 (relative stereo)              mg/kg      13.8

====

System: rat
protocol-conditions: in vivo, ip
reported-metric: LD50

>>> print(df.to_string())
                                   compound  measured
0  CCCCCOc1cccc(NC(=O)O[C@@H]2CCCC[C@H]2N2CCCC2)c1 (relative stereo)  75 mg/kg

====

assay-remarks: in vivo
protocol-conditions: mouse, ip
reported-metric: LD50 (mg/kg)

>>> df
                                   molecule  measured
0  CCCCCOc1cccc(NC(=O)O[C@@H]2CCCC[C@H]2N2CCCC2)c1 (relative stereo)        56

====

assay-remarks: in vivo
protocol-conditions: mouse, iv
reported-metric: LD50 (mg/kg)

>>> df
                                   compound  measured
0  CCCCCOc1cccc(NC(=O)O[C@@H]2CCCC[C@H]2N2CCCC2)c1 (relative stereo) [substance of the formula]      10.3

====

Test system: rat
protocol-conditions: in vivo, po
reported-metric: LD50 (mg/kg)

                                   compound  reported_metric  measured
0  CCCCCOc1cccc(NC(=O)O[C@@H]2CCCC[C@H]2N2CCCC2)c1 (relative stereo)             LD50      1030

====

assay-remarks: in vivo
protocol-conditions: rat, ip
reported-metric: LD50 (mg/kg)

>>> df
                                   compound  reported_metric  measured
0  CCCCCOc1cccc(NC(=O)O[C@@H]2CCCC[C@H]2N2CCCC2)c1 (relative stereo)             LD50        70

====

assay-remarks: in vivo
protocol-conditions: rabbit, iv
reported-metric: LD50 (mg/kg)

In [3]: df
Out[3]:
                                   compound  reported_metric  measured
0  CCCCCOc1cccc(NC(=O)O[C@@H]2CCCC[C@H]2N2CCCC2)c1 (relative stereo) [substance of the formula]             LD50      2.92

Where these numbers come from: patent US4975450A
